TGI listing for selected molecules.
- Tested on: U251 CNS
- ASSAY TEXT: NCI tumour cell line growth inhibition, 48 h

MOLECULE	TGI
O=C(CNC(=O)c1ccccc1)Oc1c(Cl)c(Cl)c(Cl)c(Cl)c1Cl	> 100 µM
COc1ccc(N2C(=O)/C(=C/c3ccc(N(CCC#N)CCC#N)cc3C)N=C2/C=C\c2ccccc2)cc1	> 100 µM
N#CC1(Cc2ccccc2)CCCCN1C(=O)c1ccccc1 (stereo not drawn)	> 100 µM

----------
- Test system: MALME-3M melanoma
- ASSAY TEXT: NCI tumour cell line growth inhibition, 48 h
TGI listing for selected compounds.
ENDPOINT: TGI

COMPOUND	TEST TARGET	ENDPOINT	VALUE REPORTED
O=C(/C=C/c1ccccc1F)c1ccc([N+](=O)[O-])cc1	MALME-3M melanoma	TGI	70 µM
O=[N+]([O-])c1ccc(N/N=C2\C=CCCC2)c([N+](=O)[O-])c1	MALME-3M melanoma	TGI	> 100 µM
COc1cc(-c2nc3nc(N4CCN(C)CC4)ccc3[nH]2)c(OC)c2[nH]c(CO)nc12	MALME-3M melanoma	TGI	> 100 µM
CCOC(=O)C1=C(C)N=C2SC=C(c3ccccc3)N2[C@H]1c1cn[nH]c1-c1ccc(Cl)cc1	MALME-3M melanoma	TGI	3.45 µM
OCc1cn(Cc2ccc(Cl)cc2)c2ccccc12	MALME-3M melanoma	TGI	30.5 µM
C[C@@H](c1ccccc1)N1CN(C(=O)OCc2ccccc2)C(CO)C1=O (stereo partly specified)	MALME-3M melanoma	TGI	> 100 µM

----------
- System: SK-MEL-28 melanoma
- ASSAY TEXT: NCI tumour cell line growth inhibition, 48 h
TGI listing for selected compounds.
ENDPOINT: TGI

COMPOUND	TEST TARGET	ENDPOINT	VALUE REPORTED
CCSC(=O)N1c2ccc(OC)cc2C=CC1C#N (stereo unspecified)	SK-MEL-28 melanoma	TGI	> 1000 µM
Cc1cc(S(=O)(=O)Nc2n[nH]c(-c3ccc(Cl)cn3)n2)c(S)cc1Cl	SK-MEL-28 melanoma	TGI	> 100 µM
CSc1nc2c(nc(N)n2C2OC(CO)C(O)C(O)C2O)c(=O)n1C (stereo unspecified)	SK-MEL-28 melanoma	TGI	> 100 µM
COc1cc(/C=C2\CN(S(=O)(=O)c3ccc(C)cc3)C/C(=C\c3cc(CN4CCOCC4)c(O)c(OC)c3)C2=O)cc(CN2CCOCC2)c1O	SK-MEL-28 melanoma	TGI	> 100 µM
CC[C@]1(O)CC2CN(CCCc3c([nH]c4ccccc34)[C@@](C(=O)OC)(c3cc4c(cc3OC)N(C)C3C45CCN4CC=C[C@](CC)(C45)C(OC(C)=O)[C@@]3(O)C(=O)OC)C2)C1 (stereo partly specified)	SK-MEL-28 melanoma	TGI	> 10 µM
Nc1ncc(-c2ccc3ncnc(N4CCc5ccc(Cl)cc54)c3c2)cn1	SK-MEL-28 melanoma	TGI	> 100 µM
C[n+]1[se]c2ccccc2c1Cl	SK-MEL-28 melanoma	TGI	> 54.7 µM
O=C(Nc1ccc(F)cc1)C(=O)C(C(=O)c1ccccc1F)C1OC(=O)c2ccccc21 (stereo unspecified)	SK-MEL-28 melanoma	TGI	> 100 µM
CC(C)Cc1ccc(C(C)C(=O)NCc2ccc(Cn3c(=O)sn(CCCCl)c3=O)cc2)cc1 (stereo unspecified)	SK-MEL-28 melanoma	TGI	3.02 µM
O=C(COc1ccc2c(=O)cc(-c3ccc(Cl)cc3)oc2c1)N1CCN(c2ccccc2)CC1	SK-MEL-28 melanoma	TGI	> 100 µM
O=C1/C(=N\O)C2CCC1C2 (stereo unspecified)	SK-MEL-28 melanoma	TGI	> 100 µM
Cc1nc2ccc(Nc3nc(Cl)nc(Nc4ccc(F)cc4)n3)cc2n1Cc1ccccc1	SK-MEL-28 melanoma	TGI	10.5 µM
CCOC(NC(=O)CC)(C(F)(F)F)C(F)(F)F	SK-MEL-28 melanoma	TGI	> 100 µM
Nc1ccn(C2OC(CO)C(O)C2(F)F)c(=O)n1 (stereo unspecified)	SK-MEL-28 melanoma	TGI	> 100 µM
Cn1c(-c2ccccc2)c2cc3nc4ccccc4nc3cc2c1-c1ccccc1	SK-MEL-28 melanoma	TGI	> 100 µM
O=C1c2ccccc2C(=O)c2c(Nc3ccc(CCO)cc3)ccc(O)c21	SK-MEL-28 melanoma	TGI	55.2 µM
O=C1/C(=C/c2ccc(O)c(CN3CCCCC3)c2)CCC/C1=C\c1ccc(O)c(CN2CCCCC2)c1	SK-MEL-28 melanoma	TGI	31.3 µM
O=c1[nH]nc(Cc2ccccc2)n1/N=C/c1ccc(/C=N/n2c(Cc3ccccc3)n[nH]c2=O)cc1	SK-MEL-28 melanoma	TGI	> 100 µM
COc1ccc(/C=N/Nc2nc(-c3cc4oc(=O)n(C)c4cc3Cl)cs2)cc1OC	SK-MEL-28 melanoma	TGI	> 100 µM
Cc1csc(-n2nc(C)cc2C)n1	SK-MEL-28 melanoma	TGI	> 100 µM
OC1c2c(ccc3c2CCC3)CC12Cc1ccccc1C2 (stereo unspecified)	SK-MEL-28 melanoma	TGI	30.5 µM

----------
- Test system: SNB-75 CNS
- ASSAY TEXT: NCI tumour cell line growth inhibition, 48 h
Decide by TGI: equal to or exceeding 7 µM means label 1, less means label 0.

MOLECULE	CLASS LABEL
CCCCCCCCCc1c(Cl)nc(Cl)nc1Cl	label 1
CC(C)Oc1c(N(Cc2ccccc2)c2ccccc2C2SCCCS2)c(=O)c1=O	label 1
S=C(S)N1CCOCC1	label 1
Nc1ncc(-c2ccc3ncnc(N4CCc5ccc(Cl)cc54)c3c2)cn1	label 0
O=C(CC(C(=O)c1ccc(F)cc1)c1ccsc1)c1cccs1 (stereo unspecified)	label 1
O=C(/C=C/c1ccccc1F)c1ccc([N+](=O)[O-])cc1	label 1
O=C(c1ccccc1)c1c(C(F)(F)F)n([O-])c2ccc(F)cc2[n+]1=O	label 0
COc1ccc(N=NC(=O)NC(CC(C)C)C(=O)NC(Cc2ccccc2)C(=O)O)cc1 (stereo unspecified)	label 1
CCN(Cc1ccccc1F)c1ccc(CO)c(Cl)c1	label 1
O=C1c2ccccc2-c2c1c1ccc([N+](=O)[O-])cc1c(=O)n2CCCN1CCOCC1	label 1

----------
- System: HCC-2998 colon
- ASSAY TEXT: NCI tumour cell line growth inhibition, 48 h
Decide by TGI: equal to or exceeding 50 µM means 1, less means 0.

COMPOUND	CLASS LABEL
CS(=O)(=O)Nc1ccc(Nc2c3ccccc3nc3cc([N+](=O)[O-])ccc23)cc1	0
Nc1cc(C(=O)NC2C3CC4CC(C3)CC2C4)[nH]c(=S)n1 (stereo not given)	1
CCC(=O)O[C@@H]([C@H](C)[C@H]1OC(CC)=C(C)C(=O)[C@@H]1C)[C@@H](C)C(=O)CC	0
COc1cccc(C(=O)c2sc(Nc3ccc(N4CCN(C(C)C)CC4)cc3)nc2N)c1	0
CC12CCC(=O)N1c1cnccc1N2 (stereo not given)	1
COP(=O)(CC(=O)C1OC(C)(C)OC1C(O)COCc1ccccc1)OC (stereo not given)	1
COc1cc(Nc2c(C#N)[n+]([O-])c3ccccc3[n+]2[O-])cc(OC)c1OC	1
O=C(CI)OCC(COC(=O)CI)OC(=O)CI	0
Clc1ccc(OCCSCCCCCCCCCCSCCOc2ccc(Cl)cc2)cc1	1
CCCCN(CCCC)CC(C(=O)Nc1ccccc1)/C(C)=N\NC(=O)c1ccncc1 (stereo not given)	1

----------
- System: EKVX NSCLC
- ASSAY TEXT: NCI tumour cell line growth inhibition, 48 h

COMPOUND	GI50
CC(C)Cc1ccc(C(C)C(=O)NCc2ccc(Cn3c(=O)sn(CCCCl)c3=O)cc2)cc1 (centres undefined)	1470 nM
c1ccc2nc3c(cc2c1)Sc1cc2ccccc2[n+]2c1N3CC2	21000 nM
Cc1ccc(C(=Nc2ccccc2)N=P(c2ccccc2)(c2ccccc2)c2ccccc2)cc1	1440 nM
COc1cc(/C=C2\CN(S(=O)(=O)c3ccc(C)cc3)C/C(=C\c3cc(CN4CCOCC4)c(O)c(OC)c3)C2=O)cc(CN2CCOCC2)c1O	16900 nM
COc1ccc(-c2nn(C(=O)NCCN(C)C)cc2-c2ccncc2)cc1Cl	2230 nM
COc1cc(C(=O)N2CCN(c3ccccn3)CC2)c(N)cc1OCc1ccccc1	> 100000 nM
COc1cc2c3c(n(CCCn4ccnc4)c(=O)c2cc1OC)-c1cc2c(cc1C3=O)OCO2	1100 nM
COc1ccc([As]=[As]c2ccc(OC)c(NCS(=O)(=O)O)c2)cc1NCS(=O)(=O)O (centres undefined)	1360 nM
O=C1c2ccccc2-c2c1c1ccc([N+](=O)[O-])cc1c(=O)n2CCCN1CCOCC1	20900 nM

----------
- Test system: RPMI-8226 leukemia
- ASSAY TEXT: NCI tumour cell line growth inhibition, 48 h
TGI listing for selected compounds.

COMPOUND	TGI
O=C(O)CCc1ccc(-c2ccccc2)[nH]1	> 100 µM
CCOc1ccccc1N1CSc2nnc(-c3ccccc3)n2C1	> 100 µM
C=C(C)c1ccccc1 (tested in a mixture with another compound)	> 100 µM
NC(=O)c1nnsc1N/N=C/c1ccc([N+](=O)[O-])cc1	> 100 µM
Cc1cccc2c1CC1(Cc3ccccc3C1=O)C2=O (centres undefined)	> 100 µM
O=[N+]([O-])C(=C1NCCN1)C(Cl)=C(Cl)Cl	> 100 µM
CC(C)CC(NC(=O)C(CSc1ccc([N+](=O)[O-])cc1)Cc1ccccc1)C(=O)Nc1ccccc1 (centres undefined)	> 100 µM
NNC(=O)c1n[nH]n(N)c1=S	> 100 µM
CC1(c2ccccc2)N=C(C(N)=O)c2[nH]cnc2N1 (centres undefined)	> 100 µM
OC[C@@H]1CC#C/C=C\C#CC[C@@H]1CO	> 100 µM
C=C1C(=O)OC2C1C(=O)C/C(C)=C/CCC1(C)OC21 (centres undefined)	31.7 µM
Cc1ccccc1NC(=O)c1cc2cc(N=Nc3ccccc3C(=O)O)ccc2oc1=O	60.2 µM
CC12OC(CC(O)C1O)n1c3ccccc3c3c4c(c5c6ccccc6n2c5c31)C(=O)N(CCN1CCCC1)C4=O (centres undefined)	4.43 µM
Cn1c(-c2ccccc2)c2cc3nc4ccccc4nc3cc2c1-c1ccccc1	30.1 µM
COc1ccc([As]=[As]c2ccc(OC)c(NCS(=O)(=O)O)c2)cc1NCS(=O)(=O)O (centres undefined)	5.93 µM
Cc1cc(C)c2ccc(N3CCNCC3)nc2n1	> 100 µM
CCOC(=O)c1nnsc1NC(=O)NCCCCCCn1c(=O)n(CCCCCCNC(=O)Nc2snnc2C(=O)OCC)c(=O)n(CCCCCCNC(=O)Nc2snnc2C(=O)OCC)c1=O	46.4 µM
CCOC(=O)c1ccc2c(c1)nc(-c1ccc(Cl)cc1)n2-c1cc(C(C)(C)C)[nH]n1	22.9 µM
COc1cc2c(cc1OC)[C@@H]1C(=O)c3cc4c(cc3[C@@H]1N(CCN(C)C)C2=O)OCO4	0.349 µM
